# test_summary: reduced absorbance of E. coli cultures with phage – HTS, RecBCD inhibitor project, primary screen (AID 651602)
# condition_details: growth absorbance, at 11.9 µM
Among all 360,000 compounds or so, about 950 (0.26%) were called active. No stated cut-off is given here; in the data, active means inhibition above about 11%; inactive means the rest. This excerpt belongs to a sample that is enriched for actives.
Could you please pick one outcome from this set? 1.0 (active), 0.0 (inactive)

Recorded results for 3 molecules are shown here.
>  <molecule>
O=C(NNS(=O)(=O)Cc1ccccc1)c1ccc([N+](=O)[O-])cc1

>  <label_class>
0.0

$$$$
>  <molecule>
COC(=O)N1Cc2ccnnc2CC1c1ccccc1Br (stereo unspecified)

>  <label_class>
0.0

$$$$
>  <molecule>
Cc1cc(OC(=O)NCCc2ccc(F)cc2)ccc1F

>  <label_class>
0.0

$$$$

Incoming: Record request — test call for "COc1cccc(NC(=O)N(C)C[C@@H]2OCc3cn(nn3)CCCC(=O)N([C@@H](C)CO)C[C@H]2C)c1"
Outgoing: 0.0

Incoming: Record request — test call for "O=C(Nc1ccc(Cl)c(Cl)c1)N1CC=C(c2ccccc2)CC1"
Outgoing: 0.0

Incoming: Record request — test call for "NC(=O)NCCCC(=O)O"
Outgoing: 0.0

Incoming: Record request — test call for CN1CCCCC(NC(=O)C(C)(C)C)C1=O (stereo unspecified)
Outgoing: 0.0

Incoming: Record request — test call for "CC(=O)N(O)CCCCCNC(=O)CCC(=O)N(O)CCCCCNC(=O)CCC(=O)N(O)CCCCCNC(=O)CCC(=O)O"
Outgoing: 1.0

Incoming: Record request — test call for CC1(C(=O)NS(=O)(=O)c2ccccc2)CCN1C(=O)C/C=C/c1ccccc1 (stereo unspecified)
Outgoing: 1.0

Incoming: Record request — test call for "CN(NS(=O)(=O)c1cccs1)c1ncc(C(F)(F)F)cc1Cl"
Outgoing: 0.0

* * *

# test_summary: reduced absorbance of E. coli cultures with phage – HTS, RecBCD inhibitor project, primary screen (AID 651602)
# condition_details: growth absorbance, at 11.9 µM
Out of some 360,000 compounds screened, about 950 (0.26%) were called active. Rule as the data show it: active = inhibition above about 11%; inactive = the rest. What follows is part of a selection rich in actives, with near analogues and random picks from the rest.
Could you please pick one outcome from this set? TRUE (active), FALSE (inactive)

Recorded results for 5 compounds are shown here.
>  <compound>
COc1cccc(-c2cc(CNC(=O)[C@@H](Cc3ccccc3)NC(=O)[C@H]3O[C@@H](n4cnc(C(N)=O)n4)[C@H](O)[C@@H]3O)no2)c1

>  <label_class>
FALSE

$$$$
>  <compound>
CC[C@H](NC(=O)[C@H](Cc1ccccc1)NC(=O)[C@H]1O[C@@H](n2cnc3c(=O)[nH]c(N)nc32)[C@H](O)[C@@H]1O)c1ccccc1

>  <label_class>
FALSE

$$$$
>  <compound>
Cc1ccc2nc(CN(C)C(=O)[C@@H](Cc3ccccc3)NC(=O)[C@H]3O[C@@H](n4ccc(=O)[nH]c4=O)[C@H](O)[C@@H]3O)[nH]c2c1

>  <label_class>
FALSE

$$$$
>  <compound>
O=C1c2ccccc2C2=Nc3ccccc3SC(c3ccccc3F)C12 (stereo unspecified)

>  <label_class>
TRUE

$$$$
>  <compound>
O=C(NC(Nc1nc2ccc([N+](=O)[O-])cc2s1)(C(F)(F)F)C(F)(F)F)c1ccccc1

>  <label_class>
TRUE

$$$$

Incoming: Record request — test call for "COc1ccc(S(=O)(=O)Nc2ccc3c(c2)C(=O)N([C@H](C)CO)C[C@H](C)[C@@H](CN(C)C)OCCCC[C@H](C)O3)cc1"
Outgoing: FALSE

Incoming: Record request — test call for Cc1cccc(-c2cnc(C(O)c3cc(C)cc(C)c3)[nH]2)c1 (stereo unspecified)
Outgoing: FALSE

Incoming: Record request — test call for COc1ccccc1C(=O)N1O[C@]23C=C[C@]14C[C@@H](O)CC[C@]4(C)C2CC[C@]1(C)[C@@H]([C@H](C)/C=C/[C@H](C)C(C)C)CC[C@H]13 (stereo partly specified)
Outgoing: FALSE

Incoming: Record request — test call for "CN(C)[C@@H]1C(=O)C(C(N)=O)=C(O)[C@@]2(O)C(=O)C3=C(O)c4c(O)ccc(Cl)c4[C@@H](O)[C@H]3C[C@@H]12"
Outgoing: TRUE

Incoming: Record request — test call for "COc1cccc(CNC(=O)[C@H]2CCCN2C(=O)[C@H]2CCCN2C(=O)c2cc(F)cc(F)c2)c1"
Outgoing: FALSE

Incoming: Record request — test call for "COc1ccc2c(c1)c(=Cc1ccc(N(C)C)cc1)c1cc(-c3ccccc3)[n+](C)n12"
Outgoing: TRUE

Incoming: Record request — test call for "CC(=O)c1c(C)n([O-])c2ccccc2[n+]1=O"
Outgoing: TRUE

Incoming: Record request — test call for CCOc1ccc(C(CCc2ccccc2)NC(=O)c2ccc(OC)c(OC)c2)cc1OCC (stereo unspecified)
Outgoing: FALSE

Incoming: Record request — test call for "O=C(Nc1cc(-c2ccccc2)nn1-c1ccccc1F)c1ccc([N+](=O)[O-])cc1"
Outgoing: FALSE

Incoming: Record request — test call for "Cc1cc(Br)cn2c(Cc3ccccc3C(F)(F)F)c(-c3ccc(C#N)cc3)nc12"
Outgoing: FALSE

Incoming: Record request — test call for "Nc1nc2c(ncn2[C@@H]2O[C@H](C(=O)N[C@@H](Cc3ccccc3)C(=O)NCc3ccccc3)[C@@H](O)[C@H]2O)c(=O)[nH]1"
Outgoing: FALSE

Incoming: Record request — test call for CCOc1ccc(C(CC(=O)O)n2cnnn2)cc1OC (stereo unspecified)
Outgoing: FALSE

Incoming: Record request — test call for COc1cccc(C(O)c2ncc(-c3ccc4ccccc4c3)[nH]2)c1 (stereo unspecified)
Outgoing: TRUE

Incoming: Record request — test call for Cc1ccc(-c2cnc(C(O)c3cc(Cl)cc(Cl)c3)[nH]2)cc1 (stereo unspecified)
Outgoing: TRUE

Incoming: Record request — test call for CC1(C(=O)NS(=O)(=O)c2ccccc2)CCN1C(=O)c1ccccc1 (stereo unspecified)
Outgoing: FALSE

Incoming: Record request — test call for "O=C(NN=Cc1ccco1)C(=O)Nc1ccc(Cl)c([N+](=O)[O-])c1"
Outgoing: FALSE
